src = PubChem BioAssay (NCI)

System: SNB-75 CNS
Test method notes: NCI tumour cell line growth inhibition, 48 h
Attribute measured: GI50

Would you mind listing GI50 for each of the following compounds?
1. O=C1c2cccnc2C(=O)c2c1c(C(=O)OCCc1ccccn1)c1ccccn21
2. c1ccc(-c2cn(-c3ccccc3)c(-c3ccccc3)n2)cc1
3. NC(=O)CCc1ccccc1Oc1nccc(-c2c(-c3ccc(F)cc3)ncn2C2CCNCC2)n1
4. CCCOc1ccc(/C=N/Nc2cc(C)nc3ccc(Cl)cc23)cc1

1. < 0.0153 µM
2. 14 µM
3. > 25 µM
4. 1.94 µM

* * *

Test system: MDA-MB-435
Test method notes: NCI tumour cell line growth inhibition, 48 h
Consider the following compounds; for each one, report its TGI.

# Compound, Attribute measured, Result
records = [
    ("Cc1cccc2c1c(=O)c1c(O)cc3c(c1n2C)C=CC(C)(C)O3", "TGI", "> 100 µM"),
]

Would you mind listing TGI for each of the following compounds?
1. CC(Cc1cccc2c1Nc1ccccc1S2)N(C)CCO (stereo not drawn)
2. C=C1CC(C)(COc2cc(=O)oc3ccccc23)OC1=O (stereo not drawn)

["> 100 µM", "17.7 µM"]

Would you mind listing TGI for each of the following compounds?
1. CN1CCN(c2ccc3[nH]c(C4=C(O)C(=O)[C@@H]5C(=C4O)N=C(CO)N5C)nc3n2)CC1
2. C=C(CN1CCN(c2ccccc2C(F)(F)F)CC1)c1ccc(C(=O)Nc2ccccc2N)cc1
3. O=c1[nH]c(F)nc2c1ncn2C1OC(CO)C(O)C1O (stereo not drawn)
4. CC(CNC(=O)c1ccccc1)(CNC(=O)c1ccccc1)[N+](=O)[O-]
5. COc1ccc(NS(=O)c2c(C)cc(C)cc2C)cc1 (stereo not drawn)

1: > 100 µM; 2: > 22.6 µM; 3: > 100 µM; 4: > 100 µM; 5: > 100 µM
